assay: Human HepG2 cell viability assay in 384 well format; assay type: toxicity, cell-based; set-up: dose 125 nL, time 70.5 hour; concentration not given beside the values; settings: HepG2 cells, read-out: Inhibition
property-name: cytotoxicity at 70.5 h (%)
One number for each entry, in %.

[[record]]
compound = "Cn1ncc(NCc2cc(F)cc(F)c2)c(Cl)c1=O"
number = -7.18

[[record]]
compound = "c1cc(CCNc2ncc(-c3cnccn3)c(C3CC3)n2)ccn1"
number = -5.03

[[record]]
compound = "CN(Cc1ccco1)C(=O)NCC(c1cccs1)N(C)C (stereo not drawn)"
number = -11.2


Return reported cytotoxicity at 70.5 h values for all items listed beneath this line.
1. CCOC(=O)CCN(Cc1cccnc1)C(=O)c1cc(Cl)c[nH]1
2. CC(C)c1ncc(Cl)c(C(=O)N2CCN3CCCCC3C2)n1 (stereo not drawn)
3. Cn1cc(N2CCCC(SCc3ccco3)C2=O)cn1 (stereo not drawn)
4. CC1CCN(C(=O)Cn2nc(Br)nc2Br)CC1
5. Cc1cccc(CN2CCN(C(=O)c3ccc(C)[nH]c3=O)CC2)c1
6. CC(C)c1nnc2sc(CC3CN(C(C)C)CCO3)nn12 (stereo not drawn)
7. COc1ccccc1CC1CCCN(CC(N)=O)C1 (stereo not drawn)
8. Cc1nc(CN2CCOCC3(CCN(c4ncccn4)CC3)C2)cs1

[-6.02, 36.2, 14.8, -5.71, -7.34, -7.69, -2.63, -97.5]

Origin of values: ChEMBL document CHEMBL3507680
